- System: P388 leukemia ip, CD2F1 mice, survival T/C
- run_description: NCI In Vivo Anticancer Drug Screen. Data for tumor model P388 Leukemia (intraperitoneal) in CD2F1 (CDF1) mice
- assay_conditions: endpoint: median survival time; dose: 3.13 mg/kg/injection; schedule: Q01DX009 (ip); vehicle: water
Toxic doses and inconclusive results are not listed. The calls were made as follows: active = survival T/C of 150% or more; inactive = T/C below 125% in these data.
Outcomes: active, inactive

[
  {
    "compound": "O=C1CC23CCCN2CCc2cc4c(cc2C3=C1O)OCO4 (centres undefined)",
    "target_of_assay": "P388 leukemia ip, CD2F1 mice, survival T/C",
    "qualitative_label": "inactive"
  },
  {
    "compound": "COc1cccc2c1C(=O)c1c(OC)c(C)cc(OC)c1C2=O",
    "target_of_assay": "P388 leukemia ip, CD2F1 mice, survival T/C",
    "qualitative_label": "inactive"
  },
  {
    "compound": "COc1cccc2c1C(=O)c1c(O)c3c(c(O)c1C2=O)C[C@@](O)(/C(C)=N\\O)C[C@@H]3OC1CC(N)C(O)C(C)O1 (some centres undefined)",
    "target_of_assay": "P388 leukemia ip, CD2F1 mice, survival T/C",
    "qualitative_label": "active"
  },
  {
    "compound": "CCCCCCCCCCCCCCCC(=O)N(CCCCCCCCCN(CCCN(C)C)C(=O)CCCCCCCCCCCCCCC)CCCN(C)C",
    "target_of_assay": "P388 leukemia ip, CD2F1 mice, survival T/C",
    "qualitative_label": "inactive"
  }
]

---

- Test system: P388 leukemia ip, CD2F1 mice, survival T/C
- run_description: NCI In Vivo Anticancer Drug Screen. Data for tumor model P388 Leukemia (intraperitoneal) in CD2F1 (CDF1) mice
- assay_conditions: endpoint: median survival time; dose: 60.0 mg/kg/injection; schedule: Q01DX005 (ip); vehicle: saline with Tween-80; higher = longer survival
Inconclusive results and toxic doses are left out.
Listed here are compounds together with their documented T/C.

[
  {
    "compound": "O=S(=O)(c1cc(Cl)ccc1Cl)N(CCCCCN(S(=O)(=O)c1cc(Cl)ccc1Cl)S(=O)(=O)c1cc(Cl)ccc1Cl)S(=O)(=O)c1cc(Cl)ccc1Cl",
    "T/C": "99 % of control"
  },
  {
    "compound": "O=C1C=CC2=Cc3ccccc3CN12",
    "T/C": "100 % of control"
  },
  {
    "compound": "CCOC(=O)c1cc2nc(C(C)C)n(Cc3ccccc3)c2cc(C(=O)OCC)c1=O",
    "T/C": "103 % of control"
  },
  {
    "compound": "CN1NC(c2ccccc2)=NN=C1c1ccccc1",
    "T/C": "104 % of control"
  },
  {
    "compound": "Nc1ccccc1C(=O)/C=C/c1ccccc1",
    "T/C": "100 % of control"
  },
  {
    "compound": "CCOCCOCCOC(C)Oc1ccc(Cl)cc1C (stereo unspecified)",
    "T/C": "90 % of control"
  },
  {
    "compound": "CCOP(OCC)SSCn1nc2ccc3ccccc3n2c1=O",
    "T/C": "103 % of control"
  },
  {
    "compound": "O=C1OC[C@@H]2[C@H]1[C@H]1O[C@@H]2c2cc3ccccc3cc21",
    "T/C": "104 % of control"
  },
  {
    "compound": "N=C(N=C(C(Cl)(Cl)Cl)C(Cl)(Cl)Cl)N=C(C(Cl)(Cl)Cl)C(Cl)(Cl)Cl",
    "T/C": "100 % of control"
  },
  {
    "compound": "CCc1cccc(C)c1NC(=O)CCC(=O)OC",
    "T/C": "102 % of control"
  },
  {
    "compound": "COC(=O)C(=O)C(C#N)c1ccc([N+](=O)[O-])cc1 (stereo unspecified)",
    "T/C": "101 % of control"
  }
]

---

- Test system: P388 leukemia ip, CD2F1 mice, survival T/C
- run_description: NCI In Vivo Anticancer Drug Screen. Data for tumor model P388 Leukemia (intraperitoneal) in CD2F1 (CDF1) mice
- assay_conditions: endpoint: median survival time; dose: 50.0 mg/kg/injection; schedule: Q01DX009 (ip); vehicle: suspension in saline; higher = longer survival
Inconclusive results and toxic doses are left out.
Listed here are compounds together with their documented T/C.

[
  {
    "compound": "O=[N+]([O-])c1cc(NC(=S)SCc2ccccc2)ccc1Cl",
    "T/C": "92 % of control"
  },
  {
    "compound": "COc1ccc(C2NC(C(=O)O)CS2)cc1OC (stereo not given)",
    "T/C": "95 % of control"
  },
  {
    "compound": "CCC(c1ccc(OCCS(=O)(=O)OC)cc1)C(CC)c1ccc(OCCS(=O)(=O)OC)cc1 (stereo not given)",
    "T/C": "87 % of control"
  },
  {
    "compound": "CCCCCC1NC(C(=O)O)CS1 (stereo not given)",
    "T/C": "88 % of control"
  },
  {
    "compound": "c1cc2ccc1CSCCCSCc1ccc(cc1)CSCCCSC2",
    "T/C": "92 % of control"
  }
]

---

- Tested on: P388 leukemia ip, CD2F1 mice, survival T/C
- run_description: NCI In Vivo Anticancer Drug Screen. Data for tumor model P388 Leukemia (intraperitoneal) in CD2F1 (CDF1) mice
- assay_conditions: endpoint: median survival time; dose: 60.0 mg/kg/injection; schedule: Q01DX005 (ip); vehicle: Klucel (hydroxypropylcellulose) (HPC); higher = longer survival
Inconclusive results and toxic doses are left out.
Listed here are compounds together with their documented T/C.

[
  {
    "compound": "O=C1C2=C(Nc3cc(Cl)ccc3N2)OC1c1ccc(C2OC3=C(Nc4ccc(Cl)cc4N3)C2=O)cc1 (stereo not drawn)",
    "T/C": "104 % of control"
  },
  {
    "compound": "COc1ccccc1-n1cccc(C#N)c1=S",
    "T/C": "98 % of control"
  },
  {
    "compound": "CC(=O)c1cc2cc3c4c(c2oc1=O)CCCN4CCC3",
    "T/C": "104 % of control"
  }
]

---

- Test system: P388 leukemia ip, CD2F1 mice, survival T/C
- run_description: NCI In Vivo Anticancer Drug Screen. Data for tumor model P388 Leukemia (intraperitoneal) in CD2F1 (CDF1) mice
- assay_conditions: endpoint: median survival time; dose: 25.0 mg/kg/injection; schedule: Q04DX003 (ip); vehicle: water; higher = longer survival
Inconclusive results and toxic doses are left out.
endpoint_label: T/C

[
  {
    "compound": "O=C(O)C(=O)O.O=C(O)C(=O)O.O=C(O)C(=O)O.[Ir]",
    "value_observed": "120 % of control"
  },
  {
    "compound": "C[n+]1cccc(C2=CCCC2)c1",
    "value_observed": "97 % of control"
  },
  {
    "compound": "CN(C)CCC[n+]1cc2c3ccccc3c(N)cc2c2ccccc21",
    "value_observed": "109 % of control"
  },
  {
    "compound": "COc1cccc2c1C(=O)c1c(O)c3c(c(O)c1C2=O)CC(O)(C(=O)CO)CC3OC1CC(NC(=O)C(F)(F)F)C(OC2CC(N)C(O)C(C)O2)C(C)O1 (centres undefined)",
    "value_observed": "113 % of control"
  }
]

---

- Test system: P388 leukemia ip, CD2F1 mice, survival T/C
- run_description: NCI In Vivo Anticancer Drug Screen. Data for tumor model P388 Leukemia (intraperitoneal) in CD2F1 (CDF1) mice
- assay_conditions: endpoint: median survival time; dose: 25.0 mg/kg/injection; schedule: Q04DX003 (ip); vehicle: saline
Toxic doses and inconclusive results are not listed. The calls were made as follows: active = survival T/C of 150% or more; inactive = T/C below 125% in these data.
Outcomes: 1 (active), 0 (inactive)

[
  {
    "compound": "CCCCOB(CI)OCCCC",
    "qualitative_label": 0
  },
  {
    "compound": "Nc1nc2c(ncn2C2OC(CO)C(O)C2N)c(=O)[nH]1 (stereo unspecified)",
    "qualitative_label": 0
  },
  {
    "compound": "N=C(N)c1ccc(NC(=O)c2cc3ccc(C(=N)N)cc3o2)cc1",
    "qualitative_label": 0
  },
  {
    "compound": "O=C(CCN1CC1)OCCOC(=O)CCN1CC1",
    "qualitative_label": 1
  },
  {
    "compound": "CCCCCCCC(=O)[O][Hg][CH2]C1COC([CH2][Hg][O]C(=O)CCCCCCC)CO1 (stereo unspecified)",
    "qualitative_label": 0
  },
  {
    "compound": "N=c1c(C(N)=O)cnc2n1CCCCC2",
    "qualitative_label": 0
  }
]

---

Listed here are molecules together with their documented T/C.
- Test system: P388 leukemia ip, CD2F1 mice, survival T/C
- run_description: NCI In Vivo Anticancer Drug Screen. Data for tumor model P388 Leukemia (intraperitoneal) in CD2F1 (CDF1) mice
- assay_conditions: endpoint: median survival time; dose: 200.0 mg/kg/injection; schedule: Q01DX009 (ip); vehicle: distilled water + Tween-80; higher = longer survival
Toxic doses and inconclusive results are not listed.

[
  {
    "molecule": "CNC(=O)OCc1c(C)oc(-c2ccc(Cl)c(Cl)c2)c1COC(=O)NC",
    "T/C": "91 % of control"
  },
  {
    "molecule": "N#CC1OC(COC(=O)c2ccccc2)C(OC(=O)c2ccccc2)C1OC(=O)c1ccccc1 (stereo not given)",
    "T/C": "101 % of control"
  },
  {
    "molecule": "COC(=O)C1=C(C(=O)OC)C2OC1C(COC(=O)NC1CCCCC1)=C2COC(=O)NC1CCCCC1",
    "T/C": "101 % of control"
  },
  {
    "molecule": "O=C(OCC1OC(C2N(c3ccccc3)CCN2c2ccccc2)C(OC(=O)c2ccccc2)C1OC(=O)c1ccccc1)c1ccccc1 (stereo not given)",
    "T/C": "93 % of control"
  },
  {
    "molecule": "CC(=O)OCc1ccncc1",
    "T/C": "100 % of control"
  }
]
